Tested on: Mus musculus
test_method_notes: Acute toxicity in ICR mouse assessed as apparent changes in any organ at 500 mg/kg, ip administered qd for 7 days
Format: organism-based
Parameters: dose 500 mg/kg, route intraperitoneal
measurement_setup: in vivo, 168 h
Peptide text beside a SMILES is read from it. * marks the point of attachment. OBn = c1ccc(CO*)cc1

>  <compound>
CC(C)[C@H](NC(=O)[C@H](Cc1c[nH]c2ccccc12)NC(=O)[C@@H](N)Cc1c[nH]c2ccccc12)C(=O)OCc1ccccc1 (H-Trp-Trp-Val-OBn)

>  <Activity>
Non-toxic

$$$$
>  <compound>
N[C@@H](Cc1c[nH]c2ccccc12)C(=O)N[C@@H](Cc1c[nH]c2ccccc12)C(=O)N[C@@H](Cc1ccc(O)cc1)C(=O)OCc1ccccc1 (H-Trp-Trp-Tyr-OBn)

>  <Activity>
Non-toxic

$$$$
>  <compound>
C[C@H](NC(=O)[C@H](Cc1c[nH]c2ccccc12)NC(=O)[C@@H](N)Cc1c[nH]c2ccccc12)C(=O)OCc1ccccc1 (H-Trp-Trp-Ala-OBn)

>  <Activity>
Non-toxic

$$$$

* * *

System: Mus musculus
test_method_notes: Toxicity in ICR mouse xenografted with mouse S180 cells assessed as increase in body weight at 8.9 umol/kg
Assay type: organism-based, CCRF S-180
measurement_setup: in vivo
Peptide text beside a SMILES is read from it. * marks the point of attachment. OBn = c1ccc(CO*)cc1
assay_readout: Activity (g)

>  <compound>
N[C@@H](Cc1c[nH]c2ccccc12)C(=O)N[C@@H](Cc1c[nH]c2ccccc12)C(=O)N[C@@H](CCC(=O)O)C(=O)OCc1ccccc1 (H-Trp-Trp-Glu-OBn)

>  <assay_readout>
Activity

>  <unit_tag>
g

>  <observed_measurement>
9.94

$$$$
>  <compound>
N[C@@H](Cc1c[nH]c2ccccc12)C(=O)N[C@@H](Cc1c[nH]c2ccccc12)C(=O)NCC(=O)OCc1ccccc1 (H-Trp-Trp-Gly-OBn)

>  <assay_readout>
Activity

>  <unit_tag>
g

>  <observed_measurement>
9.77

$$$$
>  <compound>
N[C@@H](Cc1c[nH]c2ccccc12)C(=O)N[C@@H](Cc1c[nH]c2ccccc12)C(=O)N[C@@H](Cc1c[nH]c2ccccc12)C(=O)OCc1ccccc1 (H-Trp-Trp-Trp-OBn)

>  <assay_readout>
Activity

>  <unit_tag>
g

>  <observed_measurement>
8.71

$$$$
>  <compound>
NC(=O)C[C@H](NC(=O)[C@H](Cc1c[nH]c2ccccc12)NC(=O)[C@@H](N)Cc1c[nH]c2ccccc12)C(=O)OCc1ccccc1 (H-Trp-Trp-Asn-OBn)

>  <assay_readout>
Activity

>  <unit_tag>
g

>  <observed_measurement>
9.96

$$$$
>  <compound>
N[C@@H](Cc1c[nH]c2ccccc12)C(=O)N[C@@H](Cc1c[nH]c2ccccc12)C(=O)N[C@@H](Cc1ccccc1)C(=O)OCc1ccccc1 (H-Trp-Trp-Phe-OBn)

>  <assay_readout>
Activity

>  <unit_tag>
g

>  <observed_measurement>
9.86

$$$$
>  <compound>
CC[C@H](C)[C@H](NC(=O)[C@H](Cc1c[nH]c2ccccc12)NC(=O)[C@@H](N)Cc1c[nH]c2ccccc12)C(=O)OCc1ccccc1 (H-Trp-Trp-Ile-OBn)

>  <assay_readout>
Activity

>  <unit_tag>
g

>  <observed_measurement>
9.8

$$$$

* * *

Test system: CCRF S-180
test_method_notes: Antitumor activity against mouse S180 cells xenografted in ICR mouse assessed as tumor growth inhibition at 8.9 umol/kg, ip administered 1 day after tumor inoculation qd for 7 days
Format: functional
measurement_setup: CCRF S-180, ip, read-out: GI
Peptide text beside a SMILES is read from it. * marks the point of attachment. OBn = c1ccc(CO*)cc1
assay_readout: inhibition in vivo at 8.9 µmol/kg (%)

>  <molecule>
N[C@@H](Cc1c[nH]c2ccccc12)C(=O)N[C@@H](Cc1c[nH]c2ccccc12)C(=O)N[C@@H](Cc1ccccc1)C(=O)OCc1ccccc1 (H-Trp-Trp-Phe-OBn)

>  <measurement_target>
CCRF S-180

>  <assay_readout>
inhibition in vivo at 8.9 µmol/kg

>  <unit_tag>
%

>  <observed_measurement>
56.7

$$$$
>  <molecule>
N[C@@H](Cc1c[nH]c2ccccc12)C(=O)N[C@@H](Cc1c[nH]c2ccccc12)C(=O)N[C@@H](Cc1c[nH]c2ccccc12)C(=O)OCc1ccccc1 (H-Trp-Trp-Trp-OBn)

>  <measurement_target>
CCRF S-180

>  <assay_readout>
inhibition in vivo at 8.9 µmol/kg

>  <unit_tag>
%

>  <observed_measurement>
19.1

$$$$
>  <molecule>
C[C@@H](O)[C@H](NC(=O)[C@H](Cc1c[nH]c2ccccc12)NC(=O)[C@@H](N)Cc1c[nH]c2ccccc12)C(=O)OCc1ccccc1 (H-Trp-Trp-Thr-OBn)

>  <measurement_target>
CCRF S-180

>  <assay_readout>
inhibition in vivo at 8.9 µmol/kg

>  <unit_tag>
%

>  <observed_measurement>
61.2

$$$$
>  <molecule>
NC(=O)C[C@H](NC(=O)[C@H](Cc1c[nH]c2ccccc12)NC(=O)[C@@H](N)Cc1c[nH]c2ccccc12)C(=O)OCc1ccccc1 (H-Trp-Trp-Asn-OBn)

>  <measurement_target>
CCRF S-180

>  <assay_readout>
inhibition in vivo at 8.9 µmol/kg

>  <unit_tag>
%

>  <observed_measurement>
50.6

$$$$
>  <molecule>
COc1cccc2c1C(=O)c1c(O)c3c(c(O)c1C2=O)C[C@@](O)(C(=O)CO)C[C@@H]3O[C@H]1C[C@H](N)[C@H](O)[C@H](C)O1

>  <measurement_target>
CCRF S-180

>  <assay_readout>
inhibition in vivo at 8.9 µmol/kg

>  <unit_tag>
%

>  <observed_measurement>
48.2

$$$$

* * *

Tested on: Mus musculus
test_method_notes: Acute toxicity in ICR mouse assessed as jumping at 500 mg/kg, ip administered qd for 7 days
Type: organism-based
Set-up: dose 500 mg/kg, route intraperitoneal
measurement_setup: in vivo, 168 h
Peptide text beside a SMILES is read from it. * marks the point of attachment. OBn = c1ccc(CO*)cc1
assay_readout: Activity

>  <compound>
N[C@@H](Cc1c[nH]c2ccccc12)C(=O)N[C@@H](Cc1c[nH]c2ccccc12)C(=O)N[C@@H](CO)C(=O)OCc1ccccc1 (H-Trp-Trp-Ser-OBn)

>  <assay_readout>
Activity

>  <observed_measurement>
Non-toxic

$$$$
>  <compound>
N[C@@H](Cc1c[nH]c2ccccc12)C(=O)N[C@@H](Cc1c[nH]c2ccccc12)C(=O)N[C@@H](Cc1cnc[nH]1)C(=O)OCc1ccccc1 (H-Trp-Trp-His-OBn)

>  <assay_readout>
Activity

>  <observed_measurement>
Non-toxic

$$$$
>  <compound>
N[C@@H](Cc1c[nH]c2ccccc12)C(=O)N[C@@H](Cc1c[nH]c2ccccc12)C(=O)NCC(=O)OCc1ccccc1 (H-Trp-Trp-Gly-OBn)

>  <assay_readout>
Activity

>  <observed_measurement>
Non-toxic

$$$$
>  <compound>
CSCC[C@H](NC(=O)[C@H](Cc1c[nH]c2ccccc12)NC(=O)[C@@H](N)Cc1c[nH]c2ccccc12)C(=O)OCc1ccccc1 (H-Trp-Trp-Met-OBn)

>  <assay_readout>
Activity

>  <observed_measurement>
Non-toxic

$$$$
>  <compound>
NC(=O)CC[C@H](NC(=O)[C@H](Cc1c[nH]c2ccccc12)NC(=O)[C@@H](N)Cc1c[nH]c2ccccc12)C(=O)OCc1ccccc1 (H-Trp-Trp-Gln-OBn)

>  <assay_readout>
Activity

>  <observed_measurement>
Non-toxic

$$$$
>  <compound>
CC(C)[C@H](NC(=O)[C@H](Cc1c[nH]c2ccccc12)NC(=O)[C@@H](N)Cc1c[nH]c2ccccc12)C(=O)OCc1ccccc1 (H-Trp-Trp-Val-OBn)

>  <assay_readout>
Activity

>  <observed_measurement>
Non-toxic

$$$$
>  <compound>
N[C@@H](Cc1c[nH]c2ccccc12)C(=O)N[C@@H](Cc1c[nH]c2ccccc12)C(=O)N[C@@H](CCC(=O)O)C(=O)OCc1ccccc1 (H-Trp-Trp-Glu-OBn)

>  <assay_readout>
Activity

>  <observed_measurement>
Non-toxic

$$$$
>  <compound>
C[C@H](NC(=O)[C@H](Cc1c[nH]c2ccccc12)NC(=O)[C@@H](N)Cc1c[nH]c2ccccc12)C(=O)OCc1ccccc1 (H-Trp-Trp-Ala-OBn)

>  <assay_readout>
Activity

>  <observed_measurement>
Non-toxic

$$$$

* * *

System: Mus musculus
test_method_notes: Acute toxicity in ICR mouse assessed as twitch at 500 mg/kg, ip administered qd for 7 days
Type: organism-based
Set-up: dose 500 mg/kg, route intraperitoneal
measurement_setup: in vivo, 168 h
Peptide text beside a SMILES is read from it. * marks the point of attachment. OBn = c1ccc(CO*)cc1

>  <compound>
N[C@@H](Cc1c[nH]c2ccccc12)C(=O)N[C@@H](Cc1c[nH]c2ccccc12)C(=O)N1CCC[C@H]1C(=O)OCc1ccccc1 (H-Trp-Trp-Pro-OBn)

>  <Activity>
Non-toxic

$$$$
>  <compound>
N[C@@H](Cc1c[nH]c2ccccc12)C(=O)N[C@@H](Cc1c[nH]c2ccccc12)C(=O)N[C@@H](CCC(=O)O)C(=O)OCc1ccccc1 (H-Trp-Trp-Glu-OBn)

>  <Activity>
Non-toxic

$$$$
>  <compound>
NC(=O)CC[C@H](NC(=O)[C@H](Cc1c[nH]c2ccccc12)NC(=O)[C@@H](N)Cc1c[nH]c2ccccc12)C(=O)OCc1ccccc1 (H-Trp-Trp-Gln-OBn)

>  <Activity>
Non-toxic

$$$$
